Test system: HCC 2998
Assay: NCI tumour cell line growth inhibition, 48 h
Activity calls are given as the source filed them. Rule as the data show it: active = GI50 up to about 1.1 µM and inactive = higher.
recordedMetric: GI50

Request: Hi! What's the reported GI50 for Cc1cc2c(cc1C)C(=O)/C(=N/Nc1ccc(F)cc1)CCO2 on HCC 2998?
Result: > 100 µM (inactive)

Request: Hi! What's the reported GI50 for Cc1ccc(NC(=O)CC(=O)n2nc(C)c(/N=N/c3ccccc3C(=O)O)c2C)cc1 on HCC 2998?
Result: > 100 µM (inactive)

Request: Hi! What's the reported GI50 for C=CC(COC(=O)C(C)(C)OC(C)=O)c1ccc(OC(=O)C(C)C)c(OC)c1 (stereo not given) on HCC 2998?
Result: 3.66 µM (inactive)

Request: Hi! What's the reported GI50 for O=C(O)[C@H](CCC[C@H]1C(=O)O[C@H](c2ccccc2)[C@H](c2ccccc2)N1C(=O)OCc1ccccc1)N[C@@H](c1ccccc1)[C@H](O)c1ccccc1 on HCC 2998?
Result: 21 µM (inactive)

Lab note: next molecule to report on.
Request: Hi! What's the reported GI50 for O=C1NC2=NOC(=O)NC2=NO1 on HCC 2998?
Result: > 200 µM (inactive)

* * *

System: SNB-19
Test: NCI tumour cell line growth inhibition, 48 h
Active and inactive are the calls of the source. No stated cut-off is given here; in the data, active = GI50 up to about 1.1 µM and inactive = higher.
Bench note: report the call from active, inactive

Request: What was the test verdict on Cc1ccc(NC(=O)C(=O)CC(=O)c2c(C)[n+]([O-])c3ccccc3[n+]2[O-])cc1C ?
Result: inactive

Request: What was the test verdict on CO[C@H]1C[C@H](O[C@H]2CC[C@]3(C=O)[C@H]4CC[C@]5(C)[C@@H](C6=CC(=O)OC6)CC[C@]5(O)[C@@H]4CC[C@]3(O)C2)O[C@H](C)[C@H]1O ?
Result: active

Request: What was the test verdict on CN(C)c1ccc(/C=C/c2ccnc3ccccc23)cc1 ?
Result: inactive

Request: What was the test verdict on O=C1CCc2c3c(c4c([nH]c5ccccc54)c2CC1)C(=O)NC3=O ?
Result: inactive

* * *

System: U-251
Experiment: NCI tumour cell line growth inhibition, 48 h
Active and inactive are the calls of the source. Rule as the data show it: active = GI50 up to about 1.1 µM and inactive = higher.
Recorded GI50 values for a group of compounds are listed next.

Sample records with GI50:
Request: Hi! What's the reported GI50 for O=C1Oc2ccccc2C(=O)/C1=C/N1C(=O)/C(=C/c2ccc([N+](=O)[O-])cc2)SC1=S on U-251?
Result: 18.9 µM (inactive)

Request: Hi! What's the reported GI50 for CCN1CC2(CO)CCC(OC)C34C5CC6C(OC)CC(O)(C5C6OC)C(O)(C(OC)C23)C14 (stereo not given) on U-251?
Result: > 305 µM (inactive)

Request: Hi! What's the reported GI50 for CC1(C)C2CC(O)C1(C)CC2=O (stereo not given) on U-251?
Result: > 100 µM (inactive)

Request: Hi! What's the reported GI50 for C1=N\c2ccc(cc2)-c2ccc(cc2)/N=C\c2ccccc2OCc2cccc(n2)COc2ccccc2/1 on U-251?
Result: 7.59 µM (inactive)

Request: Hi! What's the reported GI50 for [N-]=[N+]=C1CNC(=O)NC1=O on U-251?
Result: > 100 µM (inactive)

***
Request: Hi! What's the reported GI50 for S=C(Nc1ccccc1)N(/N=C/C=C/c1ccccc1)c1nnc(-c2ccccc2)c(-c2ccccc2)n1 on U-251?
Result: > 100 µM (inactive)

Request: Hi! What's the reported GI50 for Nc1cc([N+](=O)[O-])ccc1C(=O)N1CCC[C@H]1CO on U-251?
Result: > 100 µM (inactive)

Request: Hi! What's the reported GI50 for COc1ccc(/C=N/c2ccc(-c3nc4ccccc4[nH]3)cc2)cc1OC on U-251?
Result: 42.5 µM (inactive)

Request: Hi! What's the reported GI50 for CCOC(=O)CC1c2ccc(O)cc2OC(=O)C1c1ccc([N+](=O)[O-])cc1 (stereo not given) on U-251?
Result: 35.8 µM (inactive)

Request: Hi! What's the reported GI50 for FC(F)(F)c1cccc(-c2nc3ccccc3c3c2[C@@]2(N4CCCC4)CCCC[C@@H]32)c1 on U-251?
Result: 23.1 µM (inactive)

* * *

System: HCT-116
Assay: NCI tumour cell line growth inhibition, 48 h
The source made the active and inactive calls. Cut-off read from the data, not from the text of the source: active = GI50 up to about 1.1 µM and inactive = higher.
Bench note: report the call from T = active, F = inactive

Some solved cases for reference:
Request: What was the test verdict on COc1cc2c(cc1C)NC(=O)/C2=C\c1cccnc1 ?
Result: F

Request: What was the test verdict on Cc1cn2cc(-c3cccs3)nc2s1 ?
Result: F

Request: What was the test verdict on Oc1ccc(Cl)cc1CN1CCN(Cc2cc(Cl)ccc2O)C1 ?
Result: T

Request: What was the test verdict on Cc1nc2c(nc1C)C(=O)c1ccccc1C2=O ?
Result: F

***
Request: What was the test verdict on O=C(Nc1nc2ncn(CCNCCn3cnc4nc(NC(=O)c5ccccc5)[nH]c(=O)c43)c2c(=O)[nH]1)c1ccccc1 ?
Result: F

Request: What was the test verdict on Cc1cc(C)cc(Nc2nnc3n2S(=O)(=O)c2cc(C#N)c(Cl)cc2S3)c1 ?
Result: F

Request: What was the test verdict on C=CCCC1(C)CCCNC1=S (stereo not drawn) ?
Result: F

Request: What was the test verdict on CN(C)c1ccc2oc(=O)c3ccccc3c2c1 ?
Result: F

Request: What was the test verdict on Cc1ccc(C(=O)N(C2CCCCC2)C2CCCCC2)cc1/N=N/N(C)C ?
Result: F

Request: What was the test verdict on Cc1ccccc1NC(=O)C1C(=O)N(c2ccccc2C)C(=O)/C1=N\NC(N)=O (stereo not drawn) ?
Result: F

Request: What was the test verdict on N/C(=N\n1c(=S)[nH]c2ccccc2c1=O)Nn1c(=S)[nH]c2ccccc2c1=O ?
Result: F

Request: What was the test verdict on NCCN1CC2CCC(CC2)C1 ?
Result: F

Request: What was the test verdict on COC(=O)c1sc(=S)sc1SCc1cccc(CSc2sc(=S)sc2C(=O)OC)c1 ?
Result: F

Request: What was the test verdict on CN(Cc1cnc2nc(N)nc(N)c2n1)c1ccc(C(=O)NC(CCC(=O)NC(P(=O)(O)O)P(=O)(O)O)C(=O)O)cc1 (stereo not drawn) ?
Result: F

Request: What was the test verdict on NC(=O)c1cc(C2OC(CO)C(O)C2O)nn1-c1ccc([N+](=O)[O-])cc1 (stereo not drawn) ?
Result: F

* * *

Test system: MCF7
Test: NCI tumour cell line growth inhibition, 48 h
Active and inactive are the calls of the source. Cut-off read from the data, not from the text of the source: active = GI50 up to about 1.1 µM and inactive = higher.
Recorded GI50 values for a group of compounds are listed next.

Request: GET /values?readout=GI50&item= COc1ccc(C2C(Cl)C(=O)N2NC(=O)c2ccc(N)cc2)cc1OC (stereo not given)
Result: 9.84 µM (inactive)

***
Request: GET /values?readout=GI50&item= CN(C)c1ccc(/C=C2\N=C(N/N=C/c3ccccc3)NC2=O)cc1
Result: 56.1 µM (inactive)

Request: GET /values?readout=GI50&item= COC(=O)c1sc(=S)sc1SCc1cccc(CSc2sc(=S)sc2C(=O)OC)c1
Result: > 100 µM (inactive)

Request: GET /values?readout=GI50&item= O=C(/C=C/c1ccc(O)c(O)c1)OCC(OC(=O)/C=C/c1ccc(O)c(O)c1)C(=O)O (stereo not given)
Result: > 100 µM (inactive)

* * *

Test system: UACC-257
Test: NCI tumour cell line growth inhibition, 48 h
The source made the active and inactive calls. No stated cut-off is given here; in the data, active = GI50 up to about 1.1 µM and inactive = higher.
recordedMetric: GI50

Sample records with GI50:
Request: GET /values?readout=GI50&item= O=C(O)CC1OCC=C2C[N+]3([O-])CCC45c6ccccc6NC4C1C2CC53 (stereo not given)
Result: > 100 µM (inactive)

Request: GET /values?readout=GI50&item= Cn1c2c(c3ccccc31)CCN1C(=O)C34CCCC3CC21S4 (stereo not given)
Result: > 100 µM (inactive)

Request: GET /values?readout=GI50&item= CN(C)CCCn1c2c3ccccc3ccc2c2oc(=O)c3ccccc3c21
Result: 8.65 µM (inactive)

Request: GET /values?readout=GI50&item= CC(=O)Nc1n[n+]([O-])c2cc(C)ccc2[n+]1[O-]
Result: 4.78 µM (inactive)

Request: GET /values?readout=GI50&item= OC1(C2(c3ccc(Cl)cc3)CCCC2)c2ccccc2C2=NCCN21 (stereo not given)
Result: 14.2 µM (inactive)

***
Request: GET /values?readout=GI50&item= O=C(c1ccccc1)c1ccc2c(c1)N=C(c1ccc(Cl)c(Cl)c1)CC(c1ccc3ccccc3c1)N2 (stereo not given)
Result: > 100 µM (inactive)

Request: GET /values?readout=GI50&item= CCOc1ccc(NC2=NC(=O)C(CC(=O)Nc3ccc(Cl)cc3Cl)S2)cc1 (stereo not given)
Result: > 100 µM (inactive)

* * *

Test system: A498
Assay: NCI tumour cell line growth inhibition, 48 h
Activity calls are given as the source filed them. Rule as the data show it: active = GI50 up to about 1.1 µM and inactive = higher. Where a SMILES comes first, the peptide text is derived from it. [ ]: non-standard residue; d: D form. Phe(4-NO2) = N[CH](Cc1ccc([N+](=O)[O-])cc1)C(=O)O
recordedMetric: GI50

Sample records with GI50:
Request: GET /values?readout=GI50&item= COc1cc2c3cc1Oc1c(O)c(OC)cc4c1[C@H](Cc1ccc(cc1)Oc1cc(ccc1O)C[C@H]3N(C)CC2)N(C)CC4
Result: 16.7 µM (inactive)

Request: GET /values?readout=GI50&item= CC(NC(=O)C(Cc1ccc([N+](=O)[O-])cc1)NC(=O)C(N)CCCCN)C(=O)NC(Cc1ccc([N+](=O)[O-])cc1)C(N)=O (stereo not drawn) (H-K[Phe(4-NO2)]A[Phe(4-NO2)]-NH2; configuration not given here)
Result: 85.5 µM (inactive)

Lab note: next compound to report on.
Request: GET /values?readout=GI50&item= OCC(O)C(O)C(O)C1SC(c2ccccc2)=NN1c1ccccc1 (stereo not drawn)
Result: > 88.5 µM (inactive)
